experiment: Biodistribution: organ distribution of F-18 signal in mice; format: in vivo, male NMRI mice; conditions: pancreas, 30 min post i.v. injection
Listing: Organ distribution of F-18 signal, pancreas of selected compounds
Record the result as a number with its unit.

// returns reported Organ distribution of F-18 signal, pancreas for input O=C(NCC(=O)N1CCN(c2ccc(OCc3ccccc3)cc2)CC1)c1ccc([18F])nc1 [Example 10e]
2.27 % ID/g

Form field: reported Organ distribution of F-18 signal, pancreas of O=C(NCC(=O)N1CCN(c2ccc(OCc3ccccc3)cc2)CC1)c1cccnc1[18F] [Example 12c]
1.55 % ID/g

# Organ distribution of F-18 signal, pancreas lookup, item O=C(NCC(=O)N1CCN(c2ccc(OCc3ccccc3)cn2)CC1)c1ccnc([18F])c1 [Example 14f]
1.64 % ID/g

What value of Organ distribution of F-18 signal, pancreas has been recorded for this entry: O=C(NCC(=O)N1CCN(c2ccc(OCc3ccccc3)cc2)CC1)c1ccnc([18F])c1 [Example 11c]
2.20 % ID/g

What measured Organ distribution of F-18 signal, pancreas goes with O=C(NCC(=O)N1CCN(c2ccc(OCc3ccccc3)cc2)CC1)c1cccc(OCC[18F])c1 [Example 3g] ?
2.21 % ID/g
